Hey, just so you know, these numbers are from patent US20200109188A1.

- measured.on: HA of ca A/teal/Hong Kong/W312/97 (H6N1) virus (influenza A virus)
- assay.protocol: cell-based or functional assay

binder	scale.unit	Neutralization IC50, H6-HK97
Antibody 10 (antibody, V domains shown) VH: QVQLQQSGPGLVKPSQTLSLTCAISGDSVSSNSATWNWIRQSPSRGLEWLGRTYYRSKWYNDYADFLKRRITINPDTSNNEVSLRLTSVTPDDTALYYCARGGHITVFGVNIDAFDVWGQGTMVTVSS VL: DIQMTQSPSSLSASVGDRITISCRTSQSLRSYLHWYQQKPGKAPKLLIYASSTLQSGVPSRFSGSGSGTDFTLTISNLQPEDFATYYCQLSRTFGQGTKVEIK	µg/mL	1.05
Antibody 3 (antibody, V domains shown) VH: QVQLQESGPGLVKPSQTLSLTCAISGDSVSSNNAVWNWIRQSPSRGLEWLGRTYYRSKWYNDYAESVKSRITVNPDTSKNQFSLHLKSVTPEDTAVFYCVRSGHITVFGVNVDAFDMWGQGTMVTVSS VL: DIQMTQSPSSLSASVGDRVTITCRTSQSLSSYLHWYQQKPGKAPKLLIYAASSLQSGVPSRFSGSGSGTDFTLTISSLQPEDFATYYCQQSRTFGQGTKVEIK	µg/mL	1.77
